B1: KLHL12 (parent)
chain: REESLPNLLQYVRMPLLTPRYITD

- Variants of: B1
- Assay remarks: protein stability index of a GFP-peptide fusion (GPS, HEK-293T) (PSI 1-6); higher = more stable;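 note: lentivirally expressed fusions sorted by FACS into six bins by GFP to DsRed ratio, PSI derived from sequencing read proportions per bin multiplied by bin number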
- Condition set: c terminus: a fixed tail appended
Property: protein stability index

[ask] Please report the recorded protein stability index for R13L .
[reply] 3.6

[ask] Please report the recorded protein stability index for D24I .
[reply] 3.11

[ask] Please report the recorded protein stability index for R20D .
[reply] 3.03

[ask] Please report the recorded protein stability index for P6M .
[reply] 2.11

[ask] Please report the recorded protein stability index for V12I .
[reply] 2.77

[ask] Please report the recorded protein stability index for L16M .
[reply] 2.46

[ask] Please report the recorded protein stability index for P15I .
[reply] 3.9

[ask] Please report the recorded protein stability index for P6Y .
[reply] 2.58

[ask] Please report the recorded protein stability index for M14P .
[reply] 3.36

[ask] Please report the recorded protein stability index for R1P .
[reply] 2.16

[ask] Please report the recorded protein stability index for P6W .
[reply] 2.11

[ask] Please report the recorded protein stability index for R20T .
[reply] 2.15

[ask] Please report the recorded protein stability index for L8T .
[reply] 3.12

[ask] Please report the recorded protein stability index for S4M .
[reply] 2.21

[ask] Please report the recorded protein stability index for L9G .
[reply] 3.03

[ask] Please report the recorded protein stability index for E3R .
[reply] 2.83

[ask] Please report the recorded protein stability index for R20Q .
[reply] 2.54

[ask] Please report the recorded protein stability index for M14I .
[reply] 2.56

[ask] Please report the recorded protein stability index for L8R .
[reply] 2.98

[ask] Please report the recorded protein stability index for R1F .
[reply] 2.43

[ask] Please report the recorded protein stability index for S4A .
[reply] 2.65

[ask] Please report the recorded protein stability index for P6L .
[reply] 2

[ask] Please report the recorded protein stability index for Q10M .
[reply] 1.56

[ask] Please report the recorded protein stability index for L16T .
[reply] 2.75

[ask] Please report the recorded protein stability index for E2D .
[reply] 2.38

[ask] Please report the recorded protein stability index for R1Y .
[reply] 1.82

[ask] Please report the recorded protein stability index for N7R .
[reply] 2.3

[ask] Please report the recorded protein stability index for P15F .
[reply] 2.24

[ask] Please report the recorded protein stability index for N7Q .
[reply] 2.65

[ask] Please report the recorded protein stability index for L16W .
[reply] 1.6

[ask] Please report the recorded protein stability index for Y21W .
[reply] 1.79

[ask] Please report the recorded protein stability index for P6N .
[reply] 2.45

[ask] Please report the recorded protein stability index for Y21P .
[reply] 3.15

[ask] Please report the recorded protein stability index for D24S .
[reply] 2.01

[ask] Please report the recorded protein stability index for V12G .
[reply] 2.91

[ask] Please report the recorded protein stability index for Q10L .
[reply] 2.27

[ask] Please report the recorded protein stability index for D24T .
[reply] 2.17

[ask] Please report the recorded protein stability index for L9P .
[reply] 3.07

[ask] Please report the recorded protein stability index for R13C .
[reply] 3.21

[ask] Please report the recorded protein stability index for L8F .
[reply] 2.4

[ask] Please report the recorded protein stability index for R1C .
[reply] 1.96

[ask] Please report the recorded protein stability index for M14H .
[reply] 2.89

[ask] Please report the recorded protein stability index for Q10H .
[reply] 2.25

[ask] Please report the recorded protein stability index for P19Y .
[reply] 1.4

[ask] Please report the recorded protein stability index for L5N .
[reply] 2.52

[ask] Please report the recorded protein stability index for D24C .
[reply] 1.81
